Entries annotated with measured CC50
assay: Cytotoxicity against human Caco-2 cells assessed as reduction in cell viability; assay type: toxicity, cell-based; conditions: Caco-2 cells

CCC(CC)COC(=O)[C@H](C)N[P@](=O)(OC[C@H]1O[C@@](C#N)(c2ccc3c(N)ncnn23)[C@H](O)[C@@H]1O)Oc1ccccc1: > 100 µM

Please supply the value of reported CC50 for the item `CC(C)(C)[C@H](NC(=O)C(F)(F)F)C(=O)N1C[C@H]2[C@@H]([C@H]1C(=O)N[C@H](C#N)C[C@@H]1CCNC1=O)C2(C)C`
> 100 µM

---

system: SARS-CoV-2; assay: Antiviral activity against SARS-CoV-2 hCoV-19/USA-WA1/2020 Washington strain infected in Normal human bronchial/tracheal epithelial cells cultured in air-liquid interface media assessed as reduction in viral yield pretreated with compound followed by viral infection for 4 hrs post washout and measured 3 days after virus removal by qRT-PCR analysis; format: functional, organism-based; conditions: Severe acute respiratory syndrome coronavirus 2, hCoV-19/USA-WA1/2020 Washington, Epithelial cell
EC50 values for the compounds below.
// units = nM; emit number, no label

Example entries and their recorded answers appear below.
Cc1cc(C(=O)N[C@@H](Cc2cccc3ccccc23)C(=O)N[C@@H](CC(C)C)C(=O)N[C@H](C=O)C[C@@H]2CCCNC2=O)no1: 600
CC(C)(C)[C@H](NC(=O)C(F)(F)F)C(=O)N1C[C@H]2[C@@H]([C@H]1C(=O)N[C@H](C#N)C[C@@H]1CCNC1=O)C2(C)C: 30
CCC(CC)COC(=O)[C@H](C)N[P@](=O)(OC[C@H]1O[C@@](C#N)(c2ccc3c(N)ncnn23)[C@H](O)[C@@H]1O)Oc1ccccc1: 500

With those in mind, consider the next compound.
Kindly indicate its recorded EC50. Item: Cc1cc(C(=O)N[C@@H](Cc2cccc3ccccc23)C(=O)N[C@@H](CC(C)C)C(=O)N[C@@H](C[C@@H]2CCCNC2=O)C(O)S(=O)(=O)[O-])no1.[Na+] (some centres undefined)
400
